- measurement protocol: folding stability dG unfold from chymotrypsin proteolysis; higher = more stable
// thresholds for folding stability dG unfold classes: b0: < 0.6 kcal/mol; b1: ≥ 0.6 kcal/mol and < 3 kcal/mol; b2: ≥ 3 kcal/mol

Class label required: SAGYWEFEIELPNGRKIEIEWQRMNGRYWFKIEVLDDNGKPVREVPIPFPNPEMPFEQMIKNAVKKILDSAG [r5_630_TrROS]
b2

Class label required: SAGGSVVPLPLDETVELTFDGTTATFTALPDGTATATFTGPDSTARATFPPDGAVTVTVPGAGTTAASAGGS [r16_725_JUSTAS]
b0

Class label required: SAGGSAGGSAGGSNPNKPKEFYRIEYTHGGKPHTHMFPPNEPIPPGPNMKVDPFPADDLSAGGSAGGSAGGS [r4_107_TrROS]
b0

Class label required: SNEPPVIEIKFRIDEVQPMNGQPMIMFEITEIEDAPPEIQDLLKNGYYIMIHMPPGEPLKEGEEFEIHIFSA [r9_557_TrROS]
b1

Class label required: SAGGFLEAIKNGKPVIFHVLVKHPGSGEVEEYPILVHPDKPIDLEKLIKELFPEDFEAEIFVSDFGFSAGGS [r8_127_TrMRF]
b1

Class label required: SAGGSAGGSAGKEKTITVLLEVDGYLVVAEVKLNEDGSLEITSVKVIKLPKPKPSPEALKSAGGSAGGSAGG [r11_843_TrROS_Hall]
b0

Class label required: SAGGEGEPFRITPDEIQRIFNELAQDHGFNVSISEIQVPGDEVRITISIQHDGGTQSVRLPFRIEKDDSAGG [r13_652_TrROS]
b0

Class label required: SAGSMKIKIKAKVPPGPYRIRIMWQYPGGDFKPVEEETVDPGQEVKIPIEFPDGKPFDPDNIRVMIEPPSAG [r5_287_TrROS]
b1

Class label required: SAGGSAGGSAGKKKLTVTVKKKKPAKEKKKVKTKVVKEKKLELSEEELKKLLDELKELLESAGGSAGGSAGG [r11_418_TrROS_Hall]
b0

====

- measurement protocol: folding stability dG unfold from chymotrypsin proteolysis; higher = more stable
folding stability dG unfold by entry:
Note: unit kcal/mol is implicit; provide only the numeric part.

For the sequence SAGGSAGGSAGGEAFEVERVELVLDPETGTPYLLVYFRDGRVLVYDLPRGTWRVVPAEELSAGGSAGGSAGG [r11_922_TrMRF] , report folding stability dG unfold.
3.06

====

- measurement protocol: folding stability dG unfold (combined trypsin and chymotrypsin); higher = more stable
measurement label: folding stability dG unfold (kcal/mol)
Note: unit kcal/mol is implicit; provide only the numeric part.

Example entries and their recorded answers appear below.
{"biosequence": "SAGGSAGGSAGGGSMSITVPMSPEEGKKLAEEIKEKLKSEGNPVEVTVTIVSPTDPSLLSSAGGSAGGSAGG [r7_776_JUSTAS]", "folding stability dG unfold [kcal/mol]": 0.41}
{"biosequence": "SAGGSAGGSAGMKVLVLRIRIERPEEELSEEDRAKLPPVRIEIELVEVELPPEVEVREEESAGGSAGGSAGG [r17_310_TrROS_Hall]", "folding stability dG unfold [kcal/mol]": 3.43}
{"biosequence": "SAGGSAGGSAMEELVKEAIKEGKPGEVVLIRNEDGSVFALTVKDGKIEIKKLEEVKEVVEESAGGSAGGSAG [r3_244_TrROS_Hall]", "folding stability dG unfold [kcal/mol]": 1.15}

For the sequence SAGGKKEKIVEIKLLDMSYDPENKTVTFKFLVKLENGEEKVIELKISAEDFEKMSLEDILKAVKDFFESAGG [r13_512_TrMRF] , report folding stability dG unfold.
4.72

====

- measurement protocol: folding stability dG unfold (combined trypsin and chymotrypsin); higher = more stable
folding stability dG unfold by entry:
Note: unit kcal/mol is implicit; provide only the numeric part.

{"biosequence": "SAGGSAGGSAGGMKVYRIGPDLYLVENEDGSLRIYNRDTGKVFTFKPGETITITIPPELLSAGGSAGGSAGG [r7_299_TrROS_Hall]", "measurement label": "folding stability dG unfold", "unit spec": "kcal/mol", "measured": 2.7}
{"biosequence": "SAGGSAMTPEELANVTVEVVTTTEPASPDLTLPDGTRLPPSTTVTTTTEVVVLPGGELLGTRVTVASAGGSA [r15_12_JUSTAS]", "measurement label": "folding stability dG unfold", "unit spec": "kcal/mol", "measured": 0.644}

For the sequence SAGGTPVVVPATITVPVPFGAPARVTIFTPEDGHVLALIELPDGAVLVATFDPTTGELHVAPYADAASAGGS [r16_735_TrMRF] , report folding stability dG unfold.
2.23

For the sequence SAGGSAGGSAGMPIEKALEQADKNGRPVQIRVPNGRDIYITVKYKNGKYKIEIMPAEEIKSAGGSAGGSAGG [r17_463_TrROS] , report folding stability dG unfold.
1.51

====

- measurement protocol: folding stability dG unfold from chymotrypsin proteolysis; higher = more stable
folding stability dG unfold by entry:
Note: unit kcal/mol is implicit; provide only the numeric part.

Example entries and their recorded answers appear below.
{"biosequence": "SAGKNEVLKVDIEYDPETGIIRLKTTYPNGLKEEKLIFKIPGTGKWYTAWNSEYEEGKEYQDFGILPESAGG [r19_394_TrMRF]", "folding stability dG unfold (kcal/mol)": 2.35}
{"biosequence": "SAGGTLEEFARDLAKELAKENGGKNVPFEIEIPVKMEWYPSPDGDPEPIMTHPMRIRIQFQIPPGQPSAGGS [r16_156_TrROS]", "folding stability dG unfold (kcal/mol)": 1.53}
{"biosequence": "SAGGSAGGSAGKPEIEMEIETRTVRLPDGYLLRFSRMRITLPDGSKFEFLSVEIIRLEDLSAGGSAGGSAGG [r17_312_TrROS_Hall]", "folding stability dG unfold (kcal/mol)": 5.56}
{"biosequence": "SMVFTLPGGIEIKVEPEEDSYRFVIELPSGERLEVPVPPENLEEFIRELIRKALEIANPNITEEEIEKLASA [r9_634_TrMRF]", "folding stability dG unfold (kcal/mol)": 4.02}
{"biosequence": "SAMIEVINATDPVTGKPYTITREGEGITVTDPETGKTYAATKDGDTITLDAGDTPLTLTPVSTVPESLLSAG [r14_208_JUSTAS]", "folding stability dG unfold (kcal/mol)": 0.989}

For the sequence SMTIEIEVDGKTVTVEIDPKTGKIKKVVVKDKETGEWKELSDEEIEKLLKELEDELREKREKLEKEGKEPSA [r9_368_TrROS_Hall] , report folding stability dG unfold.
2.5

For the sequence SAGTREQVKAIAREIANEIWDTFPDMRGQKFKVKIKVEPEPNGWVRVKVTIQFPGGVQYTFPIWIPVESAGG [r19_194_TrROS] , report folding stability dG unfold.
4.4

For the sequence SAGGSAGGSMFEEEEIEIERPDGTTIKVKVEILPDGTRVLTITDPKEGKTTTVTLSPNEEILLSAGGSAGGS [r20_45_JUSTAS] , report folding stability dG unfold.
0.464

For the sequence SAGGSAGGSAGGWNIQVNPDNLKPGKEYRISITHPNGPPIPFEVRLKADGDGDWEFKIESAGGSAGGSAGGS [r10_390_TrROS] , report folding stability dG unfold.
0.183

For the sequence SAGGSAGGPLYRVLILLKKPNGEPLLLPLVAEDPEKALELAERLRKEYEEKGYELVAVEIYEFPSAGGSAGG [r6_869_TrMRF] , report folding stability dG unfold.
5.26

For the sequence SAGMTIELPNATVTLERVPVPATGESAWVVTVTARHPDGSTPTVVAVFPEDTPPEDVLAAALALAEELESAG [r5_704_TrMRF] , report folding stability dG unfold.
4.62

For the sequence MTEEEVRAEAEARARALAEERGVEITAVDIDGEVEQVVETTTRPTPDGRPVTETTSKKIKTKVRATLRPPRS [r1_91_JUSTAS] , report folding stability dG unfold.
1.39

For the sequence SAGGSAGGSAGGSMVIRNENGYLIEVKTEVVVDEETKKKYVKTEIRIYKEGEEKELPEESAGGSAGGSAGGS [r4_48_TrROS_Hall] , report folding stability dG unfold.
1.13

For the sequence SASPPRRFMIKVTYPDGKTTLSYGDDPEQTRAALEAQIAEEHPGNYTIEYTELSPDEWASPEKAEALLSSAG [r14_900_JUSTAS] , report folding stability dG unfold.
1.71

For the sequence SAGGSAGGSAGDFELDFEWHRTNDHVVLSNKARDPDNGKPLYISIIFDPDPGKLDISIMPSAGGSAGGSAGG [r17_242_TrROS] , report folding stability dG unfold.
-0.858

For the sequence SAYYKIRWNNGREIELKDMPIEDLEKYFPGGPVEIEPVPPVPVVRIESWEQANDLAEQNPPNHTIIVMDSAG [r14_445_TrROS] , report folding stability dG unfold.
-0.476

For the sequence SAGGGSMAASSVTSEEKPLPDGSSLSIPEITRPDNVATLTVEYYDPKTGTKYTFTLTIPISPDDTVTLSAGG [r13_190_JUSTAS] , report folding stability dG unfold.
1.97

For the sequence SKKYFLKIEIEIEVELRPLPDEPGYVVLRARIKIKITLVKVDPETGEIVEEKEFEIEIEIELVFPPGVKPSA [r9_1234_TrROS_Hall] , report folding stability dG unfold.
6.38

For the sequence SAGIKEIAKKLGFPIHSVKPTEPDPENGKLKWTVIFRNEKNNYYVIEIDLDDPEKIEIERFPPGEEIPSAGG [r19_72_TrROS] , report folding stability dG unfold.
1.61

For the sequence SAGGKKKKVKKKKPVYRIKIKLKNGEEIEIEAKSKEEAEKAAKELLKKLFPEKKIDEIKIVEIEKLPPSAGG [r13_887_TrROS_Hall] , report folding stability dG unfold.
2.69

For the sequence SAMTLTLEIELDGVRVRLEAELELVLNEDGSLELKLKLKIEVEPLPPPKEVEVEEEEEEVEEVEFLPEESAG [r14_341_TrROS_Hall] , report folding stability dG unfold.
4.61

For the sequence SANPIPLEKANITVSYTSPDGLVVTANITSVTYDPSTGKYTFTFTGTLTDPSTGTTTPVSFTVSTVTLSSAG [r14_825_JUSTAS] , report folding stability dG unfold.
4.25

For the sequence SAGGGMEEVAKKLGVPEDARLEVLKVERYYYTREVRDPLFEEGKPVGEKIIPRPYYSEKVDYKLFDKPSAGG [r13_482_JUSTAS] , report folding stability dG unfold.
-0.288

For the sequence SAEPKRYYALVVKRPDGKWLVFYFEDVEEGRERFEEFLRKEFPEDFEVELFEVEPSEAESIEKLLEALGSAG [r14_900_TrMRF] , report folding stability dG unfold.
4.8

For the sequence SAGGSAGGSMRIKFEFKIGDKWVEEEIPADLSQLPLSEIKKKHPKAEYKIEIEDEEGNWTPLLSAGGSAGGS [r12_540_JUSTAS] , report folding stability dG unfold.
1.04

For the sequence SKIEIDEFPWERNPDDGYATIQIKIKVRDPDKKKKDIPHEFPPGSSPDQFWDQIENRAQNNGIKDVEISWSA [r9_1203_TrROS] , report folding stability dG unfold.
-0.0831

For the sequence SAGGGKTVEVTIEVPGENAVVYIKVYDKDKPISVFPAEFIPPTGTATFTIDVPEDAEITAEVALPEEASAGG [r13_977_TrMRF] , report folding stability dG unfold.
0.904
